Recorded cytotoxicity at 70.5 h for the following compounds
Assay text: Human HepG2 cell viability assay in 384 well format
Assay type: toxicity, cell-based
Design: dose 125 nL, time 70.5 hour; concentration not given beside the values
Experimental context: HepG2 cells, read-out: Inhibition
Express the result in % but write the number alone.

Some entries whose results are on file:
>>> observed_measurement("O=C(NC1CCCC1)[C@@H]1CN(Cc2nccs2)C[C@H]2OCC[C@H]21")
33.7
>>> observed_measurement("Cc1ccc(C)c(NC(=O)N2CCC3(CC2)NC(=O)CC3C(=O)O)c1 (stereo unspecified)")
-2.48
>>> observed_measurement("CC(=O)N1CCc2ncn(C)c2C1C(=O)N1CCCC1 (stereo unspecified)")
-6.96
>>> observed_measurement("O=C(c1ccoc1)N1CCOCC2(CCN(Cc3cccs3)C2)C1 (stereo unspecified)")
-12.4
>>> observed_measurement("Cc1ccc(C)c(C(NC2CCCC2)c2cccnc2)c1 (stereo unspecified)")
7.4

Data request: Reported cytotoxicity at 70.5 h for `F[C@@H]1CN(Cc2nccs2)C[C@@H]1OCc1nc2cnccc2[nH]1` : what is it?
Data returned: -3.2

Data request: Reported cytotoxicity at 70.5 h for `COC(=O)[C@H](C)NC(=O)c1cc(-c2cccc(Cl)c2)no1` : what is it?
Data returned: 2

Data request: Reported cytotoxicity at 70.5 h for `Cc1ccc(N2CC3(CCN(S(=O)(=O)C4CC4)C3)C2)nn1` : what is it?
Data returned: -5.86

This collection of values is drawn from ChEMBL document CHEMBL3507680.
